Each record here notes measured solubility kinetic.
Settings: buffer; pH 7.4; 200.0 µM
The reply should contain only the number, in mg/mL.

These recorded examples may help you get a feel for the data.
Cc1ccc(S(=O)(=O)Nc2ccc3nc(C)sc3c2)c(C)c1    0.03
O=C(NCc1ccccc1F)C1CCCN(c2cnccn2)C1 (configuration not stated)    0.0447
CCOc1ccc(OCCCC(=O)N2CCN(S(=O)(=O)c3ccccc3C#N)CC2)cc1    0.0272

Data request: Value lookup for solubility kinetic; key = CCOC(=O)N1CCN(C(=O)COc2cccc3c2CCN(CC)C3=O)CC1
Data returned: 0.0445

Data request: Value lookup for solubility kinetic; key = CC(C)CCNC(=O)CSc1nc2ccccc2s1
Data returned: 0.0386

Data request: Value lookup for solubility kinetic; key = O=C(O)CSc1c2c(nc3cc(C(=O)N4CCCC4)ccc13)CCCC2
Data returned: 0.0486

Data request: Value lookup for solubility kinetic; key = O=C(CN1CCCc2ccccc21)N1CCc2ccccc21
Data returned: 0.0048

Data request: Value lookup for solubility kinetic; key = O=C(/C=C/c1ccccc1Cl)Nc1ccccc1
Data returned: 0.0006

Data request: Value lookup for solubility kinetic; key = CCc1ccc(CCC(=O)Nc2ccc(Cl)cc2)o1
Data returned: 0.0081

Data request: Value lookup for solubility kinetic; key = O=C(NCCC1=CCCCC1)c1cc(-c2ccncc2)nc2ccccc12
Data returned: 0.0012

Data request: Value lookup for solubility kinetic; key = COc1ccc(-n2c(C)cc3cc(OC(C)=O)ccc32)cc1
Data returned: 0.0007

Data request: Value lookup for solubility kinetic; key = Cc1nc(N2CCOCC2)nc(N2CCCCC2C)c1[N+](=O)[O-] (configuration not stated)
Data returned: 0.0122

Data request: Value lookup for solubility kinetic; key = O=C(COC(=O)c1ccc(F)c(S(=O)(=O)N2CCOCC2)c1)NCc1ccc2c(c1)OCO2
Data returned: 0.0538

Data request: Value lookup for solubility kinetic; key = O=c1oc2ccccc2nc1/C=C(\O)c1ccc(Br)cc1
Data returned: 0.019

Data request: Value lookup for solubility kinetic; key = COC(=O)c1cnc(Oc2c(Cl)cc(N)cc2Cl)cc1C(F)(F)F
Data returned: 0.0153

Data request: Value lookup for solubility kinetic; key = COc1ccc(NC(=O)[C@@H]2CCCN2S(=O)(=O)c2ccccc2F)cc1S(=O)(=O)N1CCCCC1
Data returned: 0.0371

Data request: Value lookup for solubility kinetic; key = Cc1ccc2nc(-c3ccc(N)cc3)sc2c1
Data returned: 0.0011

* * *

Settings: buffer; pH 7.4; 200.0 µM
Output 1 for solubility kinetic not less than 5 µg/mL; output -1 otherwise.

CC(C(=O)O)c1ccc2c(c1)[nH]c1ccc(Cl)cc12 (stereo unspecified)    1

Data request: Determine whether this compound has solubility kinetic no lower than 5 µg/mL: Oc1ccc(Nc2nc(-c3ccccc3)nc3ccccc23)cc1
Data returned: -1

Data request: Determine whether this compound has solubility kinetic no lower than 5 µg/mL: Cc1ccc(C)c(C(=O)COC(=O)CN2C(=O)C3C4CCC(C4)C3C2=O)c1 (stereo unspecified)
Data returned: 1

Data request: Determine whether this compound has solubility kinetic no lower than 5 µg/mL: CCc1c(O)nc(SCC(=O)c2ccccc2)n(-c2ccccc2)c1=O
Data returned: 1

Data request: Determine whether this compound has solubility kinetic no lower than 5 µg/mL: Cc1ccc(NC(=O)CCNC(=O)c2ccc(Cl)cc2)cc1C
Data returned: -1

Data request: Determine whether this compound has solubility kinetic no lower than 5 µg/mL: O=C(/C=C/c1ccccc1)Nc1cccc(S(=O)(=O)Nc2ccccc2F)c1
Data returned: -1

Data request: Determine whether this compound has solubility kinetic no lower than 5 µg/mL: c1ccc(P(c2ccccc2)c2ccccn2)cc1
Data returned: 1

Data request: Determine whether this compound has solubility kinetic no lower than 5 µg/mL: CCOc1ccccc1/C=C\c1nc(O)c([N+](=O)[O-])c(=O)[nH]1
Data returned: 1

Data request: Determine whether this compound has solubility kinetic no lower than 5 µg/mL: COc1cc(S(=O)(=O)NCCCn2ccnc2)ccc1F
Data returned: 1

Data request: Determine whether this compound has solubility kinetic no lower than 5 µg/mL: O=C(Cc1ccc([N+](=O)[O-])cc1)Nc1ccc(Br)cn1
Data returned: -1

* * *

Settings: buffer; pH 7.4; 200.0 µM
Each record here notes measured solubility kinetic.
The reply should contain only the number, in µg/mL.

These recorded examples may help you get a feel for the data.
CCN1CCn2c3c(c4cccc(C)c42)CCCC31.Cl (centres undefined)    33.6
Cc1ccc(NC(=O)CN(C)C(=O)C2CC(=O)N(Cc3ccccc3)C2)cc1 (centres undefined)    44.7
O=C1C(=O)N(CC2COc3ccccc3O2)c2ccccc21 (centres undefined)    40.6

Data request: Value lookup for solubility kinetic; key = Cc1cc(Br)c(NC(=O)COC(=O)CC2CC3CCC2C3)c(Br)c1 (centres undefined)
Data returned: 7.7

Data request: Value lookup for solubility kinetic; key = O=C(Nc1cccc(Cl)c1)Nc1sccc1-c1nc2ccccc2s1
Data returned: 4.5

Data request: Value lookup for solubility kinetic; key = CCSc1nsc(NC(=O)Nc2cccc(OC)c2)n1
Data returned: 1.7

Data request: Value lookup for solubility kinetic; key = Cc1ccc(C)c(NC(=O)Nc2ccc3c(c2)OCO3)c1
Data returned: 1

Data request: Value lookup for solubility kinetic; key = O=C(Nc1nc2ccccc2[nH]1)c1ccc(Br)o1
Data returned: 15.5

Data request: Value lookup for solubility kinetic; key = O=C(Cc1ccc(Cl)cc1)NCCCNC(=O)c1cccnc1
Data returned: 46.2

Data request: Value lookup for solubility kinetic; key = O=C(COC(=O)c1cccs1)NCCCc1ccccc1
Data returned: 20.1

Data request: Value lookup for solubility kinetic; key = Cc1ccccc1NC(=O)c1sc(NC(=O)C2CC2)nc1C
Data returned: 4.8

Data request: Value lookup for solubility kinetic; key = CSc1ncc(Cl)c(C(=O)Nc2ccc(NC(C)=O)cc2)n1
Data returned: 18.6

Data request: Value lookup for solubility kinetic; key = O=C(c1ccc(Cl)s1)N1CCN(S(=O)(=O)c2ccc(Cl)cc2)CC1
Data returned: 3.2

Data request: Value lookup for solubility kinetic; key = COc1ccc(CCNC(=O)COC(=O)/C=C/c2cccc(F)c2)cc1
Data returned: 5.4

* * *

Settings: buffer; pH 7.4; 200.0 µM
Value type: solubility kinetic (µg/mL)
The reply should contain only the number, in µg/mL.

These recorded examples may help you get a feel for the data.
O=C(NCc1ccc(F)cc1)c1cccs1    29.9
CC1CCN(S(=O)(=O)c2cccc(C(=O)Nc3ccccc3)c2)CC1    1.3
CN(CCC#N)Cc1cc(=O)oc2ccc3ccccc3c12    33.5
CCCOc1ccc(CNC(=O)Cc2cccs2)cc1    19.9
O=C(COC(=O)c1ccc(Br)o1)Nc1cccc(S(=O)(=O)N2CCCCC2)c1    9.3

Data request: Value lookup for solubility kinetic; key = O=C(OCC(=O)N1CCC(Cc2ccccc2)CC1)c1cncc(Br)c1
Data returned: 9.9

Data request: Value lookup for solubility kinetic; key = O=C(NC12CC3CC(CC(C3)C1)C2)c1cc(F)c(F)cc1Cl
Data returned: 0.7

Data request: Value lookup for solubility kinetic; key = C=CCOc1ccc(CNc2ccc3[nH]c(=O)[nH]c3c2)cc1OC
Data returned: 2.7

Data request: Value lookup for solubility kinetic; key = CCCCCNS(=O)(=O)c1cc2c3c(c1)CCC(=O)N3CCC2
Data returned: 45.5

Data request: Value lookup for solubility kinetic; key = Cn1c(NC(=O)c2ccc(F)cc2)c(-c2ccccn2)c(=O)c2ccccc21
Data returned: 6.2

Data request: Value lookup for solubility kinetic; key = Cc1ccc(NC(=S)N2CCC(NC(=O)c3ccc(C)cc3)CC2)cc1
Data returned: 2.2

* * *

Settings: buffer; pH 7.4; 200.0 µM
Value type: log10(solubility kinetic) (log10 of the value in µg/mL)
A difference of one corresponds to tenfold solubility kinetic; all values are log10 with solubility kinetic in µg/mL.

These recorded examples may help you get a feel for the data.
CC(C)(C)NC(=O)CN1C(=O)/C(=C/c2ccccc2)SC1=S    0.04
O=S1(=O)CCN(CCc2c[nH]c3ccccc23)CC1    1.58
CCOc1ccccc1NC(=O)NCc1ccco1    0.99
Cc1cccc(NC(=O)N2CCc3ccccc3C2)c1C    0.81
O=C(CNS(=O)(=O)c1ccc(Cl)cc1)N1CCN(c2ccc(F)cc2)CC1    0.92

Attention now turns to another entry.
Data request: Value lookup for log10(solubility kinetic); key = O=S(=O)(Nc1cccc(Oc2ccc(Cl)cc2)n1)c1ccc(F)cc1
Data returned: 1.62

* * *

Each record here notes measured solubility kinetic.
Settings: buffer; pH 7.4; 200.0 µM
The reply should contain only the number, in µg/mL.

CC(=O)N(C)c1ccc(NC(=O)C(c2ccccc2)c2ccccc2)cc1    40.2
CC(=O)N1CCN(CC(=O)Nc2cc([N+](=O)[O-])ccc2Cl)CC1    43.4
O=C(COC(=O)/C=C/c1ccc(OC(F)F)cc1)NC1CCCCCC1    4.6
COC(=O)CCC(=O)NC(=S)Nc1ccccc1F    36.8
CCOC(=O)c1c(C)c2c(=O)[nH]cnc2n1-c1ccccc1    2.2

Attention now turns to another entry.
Data request: Value lookup for solubility kinetic; key = Cn1cccc1C(=O)NC(=O)COC(=O)CCNS(=O)(=O)c1ccc(Cl)cc1
Data returned: 13.8
